- Tested on: Mfn2 null MEFs
- protocolText: Mitochondrial elongation (aspect ratio) fusogenicity assay
- Assay type: cell-based, mouse
- Design: dose or concentration left out as unconfirmed
- statedConditions: mitochondrial elongation relative to Cpd B (B01 = 100); Mfn2 null MEFs, compound overnight as printed (FIG. 48)
Provide the recorded % long compare to B for the entries that follow.
Please state the value followed by its unit.

# input What % long compare to B value was documented for this molecule, Cn1c(CC2CCS(=O)(=O)C2)nnc1SCC(=O)Nc1sc2c(c1C(N)=O)CCCC2 (stereo not shown) ?
# output 23%

# input Another molecule: `Cn1c(SCC(=O)Nc2sc3c(c2C(N)=O)CCC3)nnc1-c1ccc(F)cc1`
# output −10%

# input What do you have for CC(Sc1nnc2n1CCCCC2)C(=O)Nc1sc2c(c1C(N)=O)CCC2 (stereo not shown) ?
# output 18%

# input One more molecule: `Cc1nnc(SCC(=O)Nc2sc3c(c2C(N)=O)CCC3)n1-c1ccccc1`
# output 10%

# input Field entry: `Cc1cc(C)n2nc(C(=O)N3C[C@@H]4CCN(Cc5nccn5C)[C@@H]4C3)cc2n1`
# output 114%

# input Same lookup for `NC(=O)c1c(NC(=O)CSc2nnc(-c3cccnc3)n2-c2ccccc2)sc2c1CCC2` , please.
# output 13%

# input Request: CC(Sc1ccc(Br)cc1)C(=O)Nc1ccc2c(c1)OCCO2 (stereo not shown)
# output −2%

# input Repeat with `O=C(CSCCc1ccccn1)Nc1ccc(Cl)c(Cl)c1`
# output −8%

# input Can you check `NC(=O)c1c(NC(=O)CSc2nnc(C3CC3)n2Cc2ccccc2)sc2c1CCCC2` next?
# output 15%

# input Next molecule up: O=C(CSCc1ccc(F)cc1)N1CCc2c([nH]c3ccccc23)C1c1ccc(Cl)cc1 (stereo not shown)
# output 29%

# input Ok, now `Cc1ccc(-n2c(C)nnc2SCC(=O)Nc2sc3c(c2C(N)=O)CCC3)cc1`
# output 13%

# input Also CC(Sc1nnc(CC2CCS(=O)(=O)C2)n1C)C(=O)Nc1sc2c(c1C(N)=O)CCC2 (stereo not shown) ?
# output 0%

# input Note, next up: `CCOc1ccccc1NC(=O)CSCc1cc(=O)c2ccc(C)c(C)c2[nH]1`
# output 9%

# input Cool, now `Cn1c(Cc2ccccc2)nnc1SCC(=O)Nc1sc2c(c1C(N)=O)CCC2`
# output 6%

# input Please answer likewise for `Cc1ccc(-c2noc(CSCCCC(=O)Nc3c(C)cccc3C)n2)cc1F`
# output 12%

# input Also need O=C(NCCSCc1ccsc1)C1CC2CCCC(C1)C2=O (stereo not shown) , thanks.
# output 23%

# input Please answer likewise for `Cc1ccc(NC(=O)NCCCCc2ccccc2)cc1`
# output 75%

# input And what about the molecule `Cc1cccc(C)c1NC(=O)CCCSCc1ncc(C(C)C)o1` ?
# output 6%

# input What about this molecule? `Cc1ccccc1-n1c(SCC(=O)Nc2sc3c(c2C(N)=O)CCC3)nnc1-c1cccnc1`
# output 141%
